Source listed as patent US20260125375A1.

Entries and their Ki values follow.
assay_system: C-CBL (residues 46-435) (Homo sapiens)
Construct: Purified CBL-B (residues 36-427) and C-CBL (residues 46-435) proteins from baculovirus-infected insect cells; made in house; host or cells: baculovirus-infected insect cells
measurement_description: Ligand Displacement Assay (LDA), HTRF competitive binding against BODIPY-labeled fluorescent tracer, C-CBL
stated_conditions: geometric mean of the number of tests, read-out: C-CBL Ki (nM) GMean
endpoint_label: Ki (nM)

compound="Cn1cnnc1[C@@H](c1cccc(-c2n[nH]c3c(CN4CC(F)C4)nc(C(F)(F)F)cc23)c1)C1CCC1 [Example C106]" readout_unit=nM measured_result=475
compound="C[C@H](c1nc(C(F)(F)F)cc2c(-c3cccc(C4(Cc5nncn5C)COC4)c3)n[nH]c12)N1CC[C@@H](F)C1 (single isomer, unassigned) [Example D10]" readout_unit=nM measured_result=25
compound="CN[C@@H](C)c1nc(C(F)(F)F)cc2c(-c3cccc(C4(Cc5nncn5C)COC4)c3)n[nH]c12 (single isomer, unassigned) [Example D37]" readout_unit=nM measured_result=64.5
